Origin of measurements: patent US20250115591A1

# IC50 listing for each entry below
target_entity: UniProt:Q96P20
Sequence (Q96P20 whole entry): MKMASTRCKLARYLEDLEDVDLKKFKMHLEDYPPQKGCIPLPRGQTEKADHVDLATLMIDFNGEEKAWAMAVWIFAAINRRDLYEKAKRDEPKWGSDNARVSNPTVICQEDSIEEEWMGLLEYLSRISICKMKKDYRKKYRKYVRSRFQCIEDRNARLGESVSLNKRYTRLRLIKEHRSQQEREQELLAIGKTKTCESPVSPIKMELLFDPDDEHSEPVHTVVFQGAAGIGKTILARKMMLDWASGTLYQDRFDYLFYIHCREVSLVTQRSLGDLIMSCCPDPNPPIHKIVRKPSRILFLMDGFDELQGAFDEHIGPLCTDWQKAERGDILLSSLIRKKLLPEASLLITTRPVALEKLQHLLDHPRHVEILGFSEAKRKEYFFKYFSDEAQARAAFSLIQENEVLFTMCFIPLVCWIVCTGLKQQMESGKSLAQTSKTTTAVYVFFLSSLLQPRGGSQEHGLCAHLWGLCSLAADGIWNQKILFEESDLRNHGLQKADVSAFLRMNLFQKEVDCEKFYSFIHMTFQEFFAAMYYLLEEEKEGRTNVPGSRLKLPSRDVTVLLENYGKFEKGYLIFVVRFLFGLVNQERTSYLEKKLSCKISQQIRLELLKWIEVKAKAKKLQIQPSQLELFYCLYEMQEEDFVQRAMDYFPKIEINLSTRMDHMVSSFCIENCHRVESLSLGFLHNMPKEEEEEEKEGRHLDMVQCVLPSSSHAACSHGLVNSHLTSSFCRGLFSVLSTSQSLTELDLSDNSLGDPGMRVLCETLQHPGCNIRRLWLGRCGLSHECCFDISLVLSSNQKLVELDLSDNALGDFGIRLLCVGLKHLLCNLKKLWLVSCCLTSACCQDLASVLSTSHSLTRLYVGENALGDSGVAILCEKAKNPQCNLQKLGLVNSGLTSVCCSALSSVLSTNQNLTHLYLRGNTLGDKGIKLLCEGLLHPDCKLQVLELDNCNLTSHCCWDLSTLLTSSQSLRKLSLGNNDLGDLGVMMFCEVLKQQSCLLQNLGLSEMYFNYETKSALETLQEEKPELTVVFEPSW
assay_name: THP-1 cells pyroptosis assay (LPS + nigericin, resazurin read-out)
Type: cell-based
experimental_conditions: 1 μg/ml LPS, 5 μM nigericin
Description: THP-1 cells (ATCC #TIB-202) were grown in RPMI containing L-glutamine (Gibco 15 #11835) supplemented with 1 mM sodium pyruvate (Sigma #S8636) and penicillin (100 units/ml)/streptomycin (0.1 mg/ml) (Sigma #P4333) in 10% Fetal Bovine Serum (FBS) (Sigma #F0804). […] The cells were then counted and viability (>90%) checked by Trypan blue (Sigma #T8154). […] The following method step-by-step assay was followed for compound screening. • 1. […] Plates were read in an Envision reader at Ex 560 nm and Em 590 nm • 9. […]
Structures can show the parent of a compound that is named as a salt.

- compound: "CC(C)(C)CN1CC(S(=O)(=O)NC(=O)Nc2c3c(cc4c2CCC4)CCC3)C1 [Example 135, potassium salt]"
  IC50: "< 1000 nM"
- compound: "CC(=N)N1CC(S(=O)(=O)NC(=O)Nc2c3c(cc4c2CCC4)CCC3)C1 [Example 100, potassium salt]"
  IC50: "1000 to 10000 nM"
- compound: "O=C(Nc1c2c(cc3c1CCC3)CCC2)NS(=O)(=O)C1CCN(CCF)CC1 [Example 22, potassium salt]"
  IC50: "1000 to 10000 nM"
